The following molecules are listed with their measured Herbicidal rate (%) Monochoria vaginalis values.
Test system: broad leaf weeds (Lindernia pyxidaria and Monochoria vaginalis)
ASSAY REMARKS: Test Example 1: herbicidal effect test by treatment of rice paddy soil (immediately after seeding)
Type: in vivo
TEST SETTINGS: Monochoria vaginalis, 120 g/10a active ingredient, dry weight vs untreated area, 14 days after treatment
Method: Herbicidal Effect Test by Treatment of Rice Paddy Soil Wagner pots with an area of 1/10000 ares were filled with a paddy soil, and after adding water, a compound fertilizer (N:P:K=17:17:17) was added, followed by soil puddling. […] This test was conducted in a double system per one agent solution concentration area, and the herbicidal rates (%) were determined by the following equation (Math. 1) on 14 days after the treatment with the agents. […]
Field note: include the unit after the figure.

Study these solved cases before continuing.
MOLECULE	ASSAYED TARGET	Herbicidal rate (%) Monochoria vaginalis
Cc1c(Cc2ccccc2N(S(=O)(=O)C(F)(F)F)S(=O)(=O)C(F)(F)F)c(=O)on1Cc1cccc(C(F)(F)F)c1	broad leaf weeds (Lindernia pyxidaria and Monochoria vaginalis)	40%
Cc1c(Cc2ccccc2N(S(=O)(=O)C(F)(F)F)S(=O)(=O)C(F)(F)F)c(=O)on1Cc1ccc(Cl)cc1	broad leaf weeds (Lindernia pyxidaria and Monochoria vaginalis)	90%
C=CCOC(=O)N(c1ccccc1Cc1c(C)n(CCSC)oc1=O)S(=O)(=O)C(F)(F)F	broad leaf weeds (Lindernia pyxidaria and Monochoria vaginalis)	90%

Sure, the documented Herbicidal rate (%) Monochoria vaginalis for Cc1c(Cc2ccccc2N(S(=O)(=O)C(F)(F)F)S(=O)(=O)C(F)(F)F)c(=O)on1CC(C)(C)C is 90%

Sure, the documented Herbicidal rate (%) Monochoria vaginalis for CSCCn1oc(=O)c(Cc2ccccc2N(C(=O)OCC(C)C)S(=O)(=O)C(F)(F)F)c1C is 90%

Sure, the documented Herbicidal rate (%) Monochoria vaginalis for CCC(C)n1oc(=O)c(Cc2ccccc2N(C(=O)C2CC2)S(=O)(=O)C(F)(F)F)c1C (stereo not drawn) is 90%

Sure, the documented Herbicidal rate (%) Monochoria vaginalis for Cc1c(Cc2ccccc2NS(=O)(=O)C(F)(F)F)c(=O)on1CC1CCCCC1 is 100%

Sure, the documented Herbicidal rate (%) Monochoria vaginalis for Cc1c(Cc2ccccc2N(S(=O)(=O)C(F)(F)F)S(=O)(=O)C(F)(F)F)c(=O)on1CC1(C)CC1 is 100%

Sure, the documented Herbicidal rate (%) Monochoria vaginalis for Cc1c(Cc2ccccc2NS(=O)(=O)C(F)(F)F)c(=O)on1Cc1cccc(F)c1 is 90%

Sure, the documented Herbicidal rate (%) Monochoria vaginalis for Cc1c(Cc2ccccc2N(S(=O)(=O)C(F)(F)F)S(=O)(=O)C(F)(F)F)c(=O)on1CC(F)(F)c1ccccc1 is 80%

Sure, the documented Herbicidal rate (%) Monochoria vaginalis for Cc1c(Cc2ccccc2NS(=O)(=O)C(F)(F)F)c(=O)on1Cc1ccc(C(F)(F)F)cc1 is 80%

Sure, the documented Herbicidal rate (%) Monochoria vaginalis for Cc1c(Cc2ccccc2N(S(=O)(=O)C(F)(F)F)S(=O)(=O)C(F)(F)F)c(=O)on1CCCl is 90%

Sure, the documented Herbicidal rate (%) Monochoria vaginalis for CCS(=O)(=O)N(c1ccccc1Cc1c(C)n(CCSC)oc1=O)S(=O)(=O)C(F)(F)F is 90%

Sure, the documented Herbicidal rate (%) Monochoria vaginalis for CCOC(=O)N(c1ccccc1Cc1c(C)n(C(C)c2ccccc2)oc1=O)S(=O)(=O)C(F)(F)F (stereo not drawn) is 90%

Sure, the documented Herbicidal rate (%) Monochoria vaginalis for CCCCC(C)n1oc(=O)c(Cc2ccccc2NS(=O)(=O)C(F)(F)F)c1C (stereo not drawn) is 100%

###

Tested on: Scirpus juncoides
ASSAY REMARKS: Test Example 2: herbicidal effect test by treatment during growing period in paddy rice cultivation (seven days after seeding)
Format: in vivo
TEST SETTINGS: 120 g/10a active ingredient, assessed 14 days after treatment, dry weight vs untreated area
I would appreciate it if you labelled entries fulfilled when Herbicidal rate (%) Scirpus juncoides is 90% or higher, otherwise not fulfilled.

Some entries whose results are on file:
MOLECULE	GROUP LABEL
CCC(C)Cn1oc(=O)c(Cc2ccccc2N(C(=O)OCc2ccccc2)S(=O)(=O)C(F)(F)F)c1C (single isomer, unassigned) [1-788 (TLC top)]	not fulfilled
Cc1c(Cc2ccccc2NS(=O)(=O)C(F)(F)F)c(=O)on1CCCc1ccccc1	not fulfilled
CCC(C)CCn1oc(=O)c(Cc2ccccc2NS(=O)(=O)C(F)(F)F)c1C (stereo not shown)	not fulfilled

**Query** Threshold query (Herbicidal rate (%) Scirpus juncoides >= 90%) on Cc1c(Cc2ccccc2N(S(C)(=O)=O)S(=O)(=O)C(F)(F)F)c(=O)on1Cc1ccc(F)cc1
**Result** fulfilled

**Query** Threshold query (Herbicidal rate (%) Scirpus juncoides >= 90%) on Cc1c(Cc2ccccc2N(S(=O)(=O)C(F)(F)F)S(=O)(=O)C(F)(F)F)c(=O)on1C(C)C1CC1 (stereo not shown)
**Result** not fulfilled

###

Tested on: Echinochloa crus-galli
ASSAY REMARKS: Test Example 2: herbicidal effect test by treatment during growing period in paddy rice cultivation (seven days after seeding)
Type: in vivo
TEST SETTINGS: 120 g/10a active ingredient, assessed 14 days after treatment, dry weight vs untreated area
Description: This test was conducted in a double system per one agent solution concentration area, and the herbicidal rates (%) were determined by the following equation (Math. 1) on 14 days after the treatment with the agents. Herbicidal Rate (%)={1-(Average Dry Weight (g) of Plant of Treated Area)/(Average Dry Weight (g) of Plant of Untreated Area)}×100 [Math. 1] Herbicidal Effect Test by Treatment During Growing Period in Paddy Rice Cultivation […]
READOUT NAME: Herbicidal rate (%) Echinochloa crus-galli
Write it as a number; the unit % goes unstated.

COMPOUND	ENDPOINT RESULT
Cc1c(Cc2ccccc2N(S(=O)(=O)C(F)(F)F)S(=O)(=O)C(F)(F)F)c(=O)on1Cc1cccc(C(F)(F)F)c1 [Compound 1-1020]	60
Cc1c(Cc2ccccc2NS(=O)(=O)C(F)(F)F)c(=O)on1CCC(C)C [Compound 1-115]	90
CCC(C)n1oc(=O)c(Cc2ccccc2N(C(=O)c2ccccn2)S(=O)(=O)C(F)(F)F)c1C (stereo not shown) [Compound 1-528]	90
Cc1c(Cc2ccccc2N(C(=O)CC(C)C)S(=O)(=O)C(F)(F)F)c(=O)on1C(C)(C)C [Compound 1-351]	90
CC(=O)N(c1ccccc1Cc1c(C)n(CC(C)(C)C)oc1=O)S(=O)(=O)C(F)(F)F [Compound 1-298]	90
CCCC(C)n1oc(=O)c(Cc2ccccc2N(C(C)=O)S(=O)(=O)C(F)(F)F)c1C (stereo not shown) [Compound 1-299]	100

Next item in the queue.
Sure, the documented Herbicidal rate (%) Echinochloa crus-galli for Cc1c(Cc2ccccc2NS(=O)(=O)C(F)(F)F)c(=O)on1CC(F)(F)c1ccccc1 [Compound 1-220] is 40

###

Test system: Chenopodium album
ASSAY REMARKS: Test Example 3: herbicidal effect test by treatment of dry field farming soil (one day after seeding)
Format: in vivo
TEST SETTINGS: 120 g/10a active ingredient, evaluated 14 days after treatment
The following molecules are listed with their measured herbicidal rate, Chenopodium album values.
Write it as a number; the unit % goes unstated.

MOLECULE	UNITS	herbicidal rate, Chenopodium album
CCC(C)n1oc(=O)c(Cc2ccccc2N(C(=O)OC(C)C)S(=O)(=O)C(F)(F)F)c1C (centres unmarked)	%	90
CCC(C)n1oc(=O)c(Cc2ccccc2N(C(=O)OCC(C)C)S(=O)(=O)C(F)(F)F)c1C (centres unmarked)	%	90
CCC(CC)n1oc(=O)c(Cc2ccccc2N(C(=O)C(C)C)S(=O)(=O)C(F)(F)F)c1C	%	90
Cc1c(Cc2ccccc2NS(=O)(=O)C(F)(F)F)c(=O)on1CCSC(C)C	%	60
Cc1c(Cc2ccccc2N(C(=O)OCc2ccccc2)S(=O)(=O)C(F)(F)F)c(=O)on1C(C)c1ccccc1 (centres unmarked)	%	90
COC(=O)N(c1ccccc1Cc1c(C)n(C(C)(C)C)oc1=O)S(=O)(=O)C(F)(F)F	%	90
Cc1c(Cc2ccccc2N(C(=O)Oc2ccccc2)S(=O)(=O)C(F)(F)F)c(=O)on1C(C)(C)C	%	90
Cc1c(Cc2ccccc2NS(=O)(=O)C(F)(F)F)c(=O)on1CCC(C)C	%	100
Cc1c(Cc2ccccc2N(C(=O)OC(C)C)S(=O)(=O)C(F)(F)F)c(=O)on1C(C)c1ccccc1 (centres unmarked)	%	90
Cc1c(Cc2ccccc2N(S(=O)(=O)C(F)(F)F)S(=O)(=O)C(F)(F)F)c(=O)on1C(C)C1CC1 (centres unmarked)	%	40

Next item in the queue.
# lookup: CCOC(=O)N(c1ccccc1Cc1c(C)n(C(C)c2ccccc2)oc1=O)S(=O)(=O)C(F)(F)F (centres unmarked) on Chenopodium album, herbicidal rate, Chenopodium album = 90
